PROCEDURE TEXT: qHTS of small molecules that selectively kill Giardia lamblia: Hit Validation.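 Note: viability measured as ATP content by luminescence so killing lowers signal; trophozoites exposed to compounds for 48 h anaerobically at 37 °C; nearly all actives have a fitted effect of over 65% in size.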
TEST PARAMETERS: Giardia lamblia trophozoite viability, dose-response; series mostly up to 38.3 µM
The campaign covered roughly 1,300 compounds. About 1,000 (77%) were called active. About 7% were inconclusive and are not listed. Calls come from the whole dose curve; as a rule, active = well fitted inhibition curve with a large enough effect; inconclusive = small, poorly fitted or top-dose-only effect; inactive = no such curve, though single readings can be large or run the other way. The set was probably picked from earlier hits. The list shows a part of the results.
Classes used: yes for active, no for inactive

O=C(Nc1ncc([N+](=O)[O-])s1)C1COc2ccccc2O1 (stereo unspecified) | yes
CCn1c(CCNC(=O)c2ccc(F)cc2)nc2ccccc21 | no
O=C(Nc1nc2c(Cl)cccc2s1)c1ccc([N+](=O)[O-])o1 | yes
O=C(N/N=C\c1ccc([N+](=O)[O-])o1)C1COc2ccccc2O1 (stereo unspecified) | yes
O=C(Nc1ccccc1)Nc1ncc([N+](=O)[O-])s1 | yes
NC(=O)c1ccsc1NC(=O)c1ccc([N+](=O)[O-])o1 | yes
O=C(CCS(=O)(=O)Cc1ccccc1)Nc1ncc([N+](=O)[O-])s1 | yes
Cn1cc([N+](=O)[O-])c(C(=O)Nc2sc3c(c2C#N)CCC3)n1 | yes
O=C(/C=C/c1ccc2c(c1)OCO2)Nc1cccnc1 | yes
Cc1nc2ccccn2c1C(=O)N/N=C/c1ccc([N+](=O)[O-])o1 | yes
O=C(Nc1nc2c(F)cc(F)cc2s1)c1ccc([N+](=O)[O-])o1 | yes
